Hi there, I'd appreciate the recorded IC50 for every entry that follows.
# tested_target: 5-HT2c (Homo sapiens, UniProt P28335)
# Construct: purchased Euroscreen/BioSignal Packard Inc
# Sequence (P28335 33-458): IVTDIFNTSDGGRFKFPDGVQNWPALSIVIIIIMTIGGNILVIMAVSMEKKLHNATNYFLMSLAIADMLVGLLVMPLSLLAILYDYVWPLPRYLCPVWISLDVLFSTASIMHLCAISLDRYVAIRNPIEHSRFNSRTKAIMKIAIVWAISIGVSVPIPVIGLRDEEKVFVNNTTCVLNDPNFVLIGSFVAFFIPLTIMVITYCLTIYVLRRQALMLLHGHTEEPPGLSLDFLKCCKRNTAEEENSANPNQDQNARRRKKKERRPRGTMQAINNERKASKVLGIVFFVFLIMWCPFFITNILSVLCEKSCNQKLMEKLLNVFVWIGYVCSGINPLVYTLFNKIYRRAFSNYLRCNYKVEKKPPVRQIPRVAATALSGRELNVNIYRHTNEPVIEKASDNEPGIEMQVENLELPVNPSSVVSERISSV
# test_summary: Radioligand binding, 5-HT2c ([3H]Mesulergine)
# condition_details: Table 4; [3H]Mesulergine 1 nM; read-out: Binding affinity, IC50 (nM) 5-HT2c
Numbers only, in nM.

molecule: CC1(c2ccc(O)cc2)C(=O)c2c(N3CCNCC3)cc(Cl)cc2N(Cc2ccc(O)cc2)C1=O (centres unmarked) [Example 32]
tested_target: 5-HT2c (Homo sapiens, UniProt P28335)
IC50 [nM]: 7890

molecule: CC1(c2cccc(O)c2)C(=O)c2c(N3CCNCC3)cc(Cl)cc2N(Cc2ccccc2)C1=O (centres unmarked) [Example 51]
tested_target: 5-HT2c (Homo sapiens, UniProt P28335)
IC50 [nM]: 8740

molecule: COc1ccc([C@@]2(C)C(=O)c3c(N4CCNCC4)cc(Cl)cc3N(Cc3ccccc3)C2=O)cc1 [Example 13-1]
tested_target: 5-HT2c (Homo sapiens, UniProt P28335)
IC50 [nM]: 7740

molecule: CC1(c2ccc([N+](=O)[O-])cc2)C(=O)c2c(N3CCNCC3)cc(Cl)cc2N(Cc2ccccc2)C1=O (centres unmarked) [Example 15]
tested_target: 5-HT2c (Homo sapiens, UniProt P28335)
IC50 [nM]: 9950

Next, consider the following molecule.
Dear colleague, I am looking for the recorded IC50 of the following molecule: CN1CCN(c2cc(Cl)cc3c2C(=O)C(C)(c2ccc(O)cc2)C(=O)N3Cc2cccc([N+](=O)[O-])c2)CC1 (centres unmarked) [Example 8]
8810

###

# tested_target: D1 (Homo sapiens, UniProt P21728)
# Sequence (P21728 whole entry): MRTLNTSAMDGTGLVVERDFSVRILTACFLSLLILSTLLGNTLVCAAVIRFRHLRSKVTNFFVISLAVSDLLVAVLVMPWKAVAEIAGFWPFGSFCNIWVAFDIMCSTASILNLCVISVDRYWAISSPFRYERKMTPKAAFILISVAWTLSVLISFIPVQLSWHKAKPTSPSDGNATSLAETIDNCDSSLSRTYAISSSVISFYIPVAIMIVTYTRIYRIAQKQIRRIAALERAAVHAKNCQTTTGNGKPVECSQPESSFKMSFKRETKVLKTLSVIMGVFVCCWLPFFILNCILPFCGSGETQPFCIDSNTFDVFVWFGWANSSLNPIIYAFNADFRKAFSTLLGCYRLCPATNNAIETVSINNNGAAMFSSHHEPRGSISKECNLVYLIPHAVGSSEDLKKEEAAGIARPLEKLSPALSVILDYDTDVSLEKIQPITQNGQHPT
# test_summary: Radioligand binding, dopamine D1
# condition_details: Table 4; read-out: Binding affinity, IC50 (nM) D1
Hi there, I'd appreciate the recorded IC50 for every entry that follows.

molecule: COc1ccc(C2(C)C(=O)c3c(N4CCNCC4)cc(Cl)cc3N(Cc3cccc(Br)c3)C2=O)cc1 (stereo not drawn)
IC50: > 1000 nM

molecule: CCNc1ccc([C@]2(C)C(=O)c3c(N4CCN(C)CC4)cc(Cl)cc3N(Cc3ccccc3)C2=O)cc1 (stereo in doubt)
IC50: > 1000 nM

Next, consider the following molecule.
Dear colleague, I am looking for the recorded IC50 of the following molecule: COc1ccc(C2(C)C(=O)c3c(N4CCNCC4)cc(Cl)cc3N(Cc3ccc4ccccc4c3)C2=O)cc1 (stereo not drawn)
> 1000 nM

###

# tested_target: Human serotonin 5-HT6 receptor (Homo sapiens, UniProt P50406)
# Construct: made in house; host or cells: insect Sf21 cells (baculovirus vector BacPAK8)
# Sequence (P50406 whole entry): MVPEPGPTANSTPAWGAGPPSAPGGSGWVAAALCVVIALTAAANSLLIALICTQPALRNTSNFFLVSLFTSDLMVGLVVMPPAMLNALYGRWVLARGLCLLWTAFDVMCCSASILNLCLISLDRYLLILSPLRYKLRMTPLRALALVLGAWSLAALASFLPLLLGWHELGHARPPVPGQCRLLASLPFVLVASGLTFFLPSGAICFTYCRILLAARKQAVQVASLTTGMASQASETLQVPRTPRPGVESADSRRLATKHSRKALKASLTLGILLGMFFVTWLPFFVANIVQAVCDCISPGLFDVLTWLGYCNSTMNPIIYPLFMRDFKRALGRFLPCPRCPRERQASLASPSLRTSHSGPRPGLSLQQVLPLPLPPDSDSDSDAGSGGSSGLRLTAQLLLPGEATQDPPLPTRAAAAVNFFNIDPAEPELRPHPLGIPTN
# test_summary: [3H]LSD binding assay on cloned 5-HT6 receptor membranes
# condition_details: Table 2; 1.87 nM [3H]LSD, 37 C, 60 min; read-out: IC50 (nM), binding affinity to the 5-HT6 receptor
Hi there, I'd appreciate the recorded IC50 for every entry that follows.
Give bare numbers, in nM.

Solved cases below.
compound: CCNc1ccc(C2(C)C(=O)c3c(N4CCNCC4)cc(Cl)cc3N(Cc3ccccc3)C2=O)cc1 (stereo not shown)
tested_target: Human serotonin 5-HT6 receptor (Homo sapiens, UniProt P50406)
endpoint_unit: nM
IC50: 14.6

compound: CC1(c2ccccc2)C(=O)c2c(N3CCNCC3)cc(Cl)cc2N(Cc2ccccc2)C1=O (stereo not shown)
tested_target: Human serotonin 5-HT6 receptor (Homo sapiens, UniProt P50406)
endpoint_unit: nM
IC50: 2.7

compound: CC1(c2ccc(O)cc2)C(=O)c2c(N3CCNCC3)cc(Cl)cc2N(Cc2ccc(-c3ccccc3)cc2)C1=O (stereo not shown)
tested_target: Human serotonin 5-HT6 receptor (Homo sapiens, UniProt P50406)
endpoint_unit: nM
IC50: 164

Dear colleague, I am looking for the recorded IC50 of the following compound: CCN(CC)c1ccc(C2(C)C(=O)c3c(N4CCN(C)CC4)cc(Cl)cc3N(Cc3ccccc3)C2=O)cc1 (stereo not shown)
37.8

###

# tested_target: Human serotonin 5-HT6 receptor (Homo sapiens, UniProt P50406)
# Construct: made in house; host or cells: insect Sf21 cells (baculovirus vector BacPAK8)
# test_summary: [3H]LSD binding assay on cloned 5-HT6 receptor membranes
# condition_details: Table 2; 1.87 nM [3H]LSD, 37 C, 60 min; read-out: IC50 (nM), binding affinity to the 5-HT6 receptor
Hi there, I'd appreciate the recorded IC50 for every entry that follows.
Numbers only, in nM.

Solved cases below.
compound: CC1(c2ccc(I)cc2)C(=O)c2c(N3CCNCC3)cc(Cl)cc2N(Cc2ccccc2)C1=O (stereo not drawn)
IC50 [nM]: 6.9

compound: COc1ccc(C2(C)C(=O)c3c(N4CCNCC4)cc(Cl)cc3N(Cc3ccccc3)C2=O)cc1 (racemic)
IC50 [nM]: 0.9

Give IC50 for all compounds that follow.
1. COc1ccc(C2(C)C(=O)c3c(N4CCNCC4)cc(Cl)cc3N(Cc3cccnc3)C2=O)cc1 (stereo not drawn)
2. CC1(c2ccc(Br)cc2)C(=O)c2c(N3CCNCC3)cc(Cl)cc2N(Cc2ccccc2)C1=O (stereo not drawn)
3. COc1ccc(C2(C)C(=O)c3c(N4CCNCC4)cc(Cl)cc3N(Cc3ccc4ccccc4n3)C2=O)cc1 (stereo not drawn)
4. CC1(c2cccc(O)c2)C(=O)c2c(N3CCNCC3)cc(Cl)cc2N(Cc2ccccc2)C1=O (stereo not drawn)
5. CC1(c2ccc(O)cc2)C(=O)c2c(N3CCNCC3)cc(Cl)cc2N(Cc2cccc([N+](=O)[O-])c2)C1=O (stereo not drawn)
6. COc1ccc(C2(C)C(=O)c3c(N4CCN(C)CC4)cc(Cl)cc3N(Cc3ccccc3)C2=O)cc1 (stereo not drawn)
7. COc1ccc(C2(C)C(=O)c3c(N4CCNCC4)cc(Cl)cc3N(Cc3cccc([N+](=O)[O-])c3)C2=O)cc1 (stereo not drawn)

21.4
1.9
6.9
6.2
14.5
1.9
2.7

###

Hi there, I'd appreciate the recorded IC50 for every entry that follows.
# tested_target: 5-HT2a (Homo sapiens, UniProt P28223)
# Construct: purchased Euroscreen/BioSignal Packard Inc
# Sequence (P28223 whole entry): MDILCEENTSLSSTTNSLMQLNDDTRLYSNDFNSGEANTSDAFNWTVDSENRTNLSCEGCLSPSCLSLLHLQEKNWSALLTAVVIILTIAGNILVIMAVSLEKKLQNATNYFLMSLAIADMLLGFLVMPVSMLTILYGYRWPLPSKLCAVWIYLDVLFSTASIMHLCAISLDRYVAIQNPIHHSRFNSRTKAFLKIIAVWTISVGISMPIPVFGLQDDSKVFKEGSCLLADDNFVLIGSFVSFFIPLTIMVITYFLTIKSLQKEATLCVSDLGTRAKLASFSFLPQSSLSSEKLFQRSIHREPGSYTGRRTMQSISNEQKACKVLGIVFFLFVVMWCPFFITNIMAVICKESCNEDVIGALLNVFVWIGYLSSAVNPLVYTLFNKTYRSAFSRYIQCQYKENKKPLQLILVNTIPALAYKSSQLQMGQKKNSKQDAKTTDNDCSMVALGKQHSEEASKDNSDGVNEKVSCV
# test_summary: Radioligand binding, 5-HT2a ([3H]Ketanserin)
# condition_details: Table 4; [3H]Ketanserin 1 nM; read-out: Binding affinity, IC50 (nM) 5-HT2a
Give bare numbers, in nM.

compound: CC1(c2ccc(Br)cc2)C(=O)c2c(N3CCNCC3)cc(Cl)cc2N(Cc2ccccc2)C1=O (stereo not drawn)
endpoint_unit: nM
measured_number: 5700
//
compound: C[C@]1(c2ccc(O)cc2)C(=O)c2c(N3CCNCC3)cc(Cl)cc2N(Cc2ccccc2)C1=O
endpoint_unit: nM
measured_number: 2000
//
compound: CC1(c2ccc(O)cc2)C(=O)c2c(N3CCNCC3)cc(Cl)cc2N(Cc2cccnc2)C1=O (stereo not drawn)
endpoint_unit: nM
measured_number: 8400
//
compound: CN1CCN(c2cc(Cl)cc3c2C(=O)C(C)(c2ccc(O)cc2)C(=O)N3Cc2ccccc2)CC1 (stereo not drawn)
endpoint_unit: nM
measured_number: 2620
//
compound: CC1(c2ccc(O)cc2)C(=O)c2c(N3CCNCC3)cc(Cl)cc2N(CC2CCCCC2)C1=O (stereo not drawn)
endpoint_unit: nM
measured_number: 5810
//
compound: COc1cccc(C2(C)C(=O)c3c(N4CCNCC4)cc(Cl)cc3N(Cc3ccccc3)C2=O)c1 (stereo not drawn)
endpoint_unit: nM
measured_number: 9150

Dear colleague, I am looking for the recorded IC50 of the following compound: "C[C@@]1(c2ccc(O)cc2)C(=O)c2c(N3CCNCC3)cc(Cl)cc2N(Cc2ccccc2)C1=O"
6380

###

# tested_target: 5-HT7 (Homo sapiens)
# Construct: purchased Euroscreen/BioSignal Packard Inc
# Sequence (P34969 whole entry): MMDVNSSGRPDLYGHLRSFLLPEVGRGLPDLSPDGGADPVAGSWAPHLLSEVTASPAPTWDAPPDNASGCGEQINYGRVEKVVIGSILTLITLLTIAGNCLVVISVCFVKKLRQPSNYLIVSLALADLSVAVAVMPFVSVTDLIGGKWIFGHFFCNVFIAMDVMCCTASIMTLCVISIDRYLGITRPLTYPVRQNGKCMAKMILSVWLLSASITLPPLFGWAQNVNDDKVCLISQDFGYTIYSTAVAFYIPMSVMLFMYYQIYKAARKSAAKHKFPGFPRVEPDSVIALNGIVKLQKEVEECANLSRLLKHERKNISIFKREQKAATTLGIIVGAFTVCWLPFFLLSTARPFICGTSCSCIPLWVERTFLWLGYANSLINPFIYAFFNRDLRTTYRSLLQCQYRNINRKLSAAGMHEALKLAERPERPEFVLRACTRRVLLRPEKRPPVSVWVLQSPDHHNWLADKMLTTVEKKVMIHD
# test_summary: Radioligand binding, 5-HT7 ([3H]LSD)
# condition_details: Table 4; [3H]LSD 3 nM; read-out: Binding affinity, IC50 (nM) 5-HT7
measurement_kind: IC50 (nM)
Answers are plain numbers, in nM.

Solved cases below.
compound: CC1(c2ccc(O)cc2)C(=O)c2c(N3CCNCC3)cc(Cl)cc2N(CC2CCCCC2)C1=O (centres unmarked) [Example 49]
measurement_kind: IC50
endpoint_unit: nM
measured_number: 9510
//
compound: C[C@@]1(c2ccc(O)cc2)C(=O)c2c(N3CCNCC3)cc(Cl)cc2N(Cc2ccccc2)C1=O [Example 14-2]
measurement_kind: IC50
endpoint_unit: nM
measured_number: 9240
//
compound: CC1(c2ccc(O)cc2)C(=O)c2c(N3CCNCC3)cc(Cl)cc2N(Cc2ccc(-c3ccccc3)cc2)C1=O (centres unmarked) [Example 42]
measurement_kind: IC50
endpoint_unit: nM
measured_number: 6730
//
compound: COc1ccc(C2(C)C(=O)c3c(N4CCNCC4)cc(Cl)cc3N(Cc3ccccc3Br)C2=O)cc1 (centres unmarked) [Example 35]
measurement_kind: IC50
endpoint_unit: nM
measured_number: 7820
//
compound: CC1(c2ccc(O)cc2)C(=O)c2c(N3CCNCC3)cc(Cl)cc2N(Cc2ccc(O)cc2)C1=O (centres unmarked) [Example 32]
measurement_kind: IC50
endpoint_unit: nM
measured_number: 8310
//
compound: CC1(c2ccc([N+](=O)[O-])cc2)C(=O)c2c(N3CCNCC3)cc(Cl)cc2N(Cc2ccccc2)C1=O (centres unmarked) [Example 15]
measurement_kind: IC50
endpoint_unit: nM
measured_number: 9510
//
compound: CC1(c2ccc(Br)cc2)C(=O)c2c(N3CCNCC3)cc(Cl)cc2N(Cc2ccccc2)C1=O (centres unmarked) [Example 20]
measurement_kind: IC50
endpoint_unit: nM
measured_number: 6840
//
compound: CN1CCN(c2cc(Cl)cc3c2C(=O)C(C)(c2ccc(O)cc2)C(=O)N3Cc2cccc([N+](=O)[O-])c2)CC1 (centres unmarked) [Example 8]
measurement_kind: IC50
endpoint_unit: nM
measured_number: 9440

Give IC50 for all compounds that follow.
1. CCN(CC)c1ccc(C2(C)C(=O)c3c(N4CCN(C)CC4)cc(Cl)cc3N(Cc3ccccc3)C2=O)cc1 (centres unmarked) [Example 5]
2. COc1ccc(C2(C)C(=O)c3c(N4CCNCC4)cc(Cl)cc3N(Cc3ccc(-c4ccccc4)cc3)C2=O)cc1 (centres unmarked) [Example 41]
3. COc1ccc(C2(C)C(=O)c3c(N4CCNCC4)cc(Cl)cc3N(CC3CCCCC3)C2=O)cc1 (centres unmarked) [Example 48]

[7620, 7010, 8520]

Give IC50 for all compounds that follow.
1. CN1CCN(c2cc(Cl)cc3c2C(=O)[C@@](C)(c2ccc(N)cc2)C(=O)N3Cc2ccccc2)CC1 (stereo in doubt) [Example 4]
2. COc1ccc(C2(C)C(=O)c3c(N4CCNCC4)cc(Cl)cc3N(Cc3cccc([N+](=O)[O-])c3)C2=O)cc1 (centres unmarked) [Example 23]

5050
8450

Give IC50 for all compounds that follow.
1. CC1(c2ccc(O)cc2)C(=O)c2c(N3CCNCC3)cc(Cl)cc2N(Cc2ccc3ccccc3c2)C1=O (centres unmarked) [Example 40]
2. C[C@]1(c2ccc(O)cc2)C(=O)c2c(N3CCNCC3)cc(Cl)cc2N(Cc2ccccc2)C1=O [Example 14-1]

[7810, 9860]
